- Tested on: Pseudomonas aeruginosa MK1184
- Assay overview: MIC, NCCLS broth microdilution
- Format: cell-based
- Condition set: MIC of antibiotic compound 1 with the labelled bridged monobactam of formula II and clavulanate, 4 mg/L each
Metric name: MIC of antibiotic at fixed inhibitor concentration (4 mg/L)

Observe how each entry below is paired with its result.
CC(=O)Nc1cccc(NC(=O)N2CC[C@@H]3[C@H]2C(=O)N3S(=O)(=O)[O-])c1.[Na+] [Compound 307]: >32 µg/mL
O=C(Nc1cccc(CO)c1)N1CC[C@@H]2[C@H]1C(=O)N2S(=O)(=O)[O-].[Na+] [Compound 321]: >32 µg/mL
NC(=S)c1cc[n+](CC(=O)N2CC[C@@H]3[C@H]2C(=O)N3S(=O)(=O)[O-])cc1 [Compound 118]: 32 µg/mL
CN(C)n1ccc(SCC(=O)N2CC[C@@H]3[C@H]2C(=O)N3S(=O)(=O)O)nc1=O [Compound 203]: 32 µg/mL
O=C(NCc1ccccc1)N1CC[C@@H]2[C@H]1C(=O)N2S(=O)(=O)[O-].[Na+] [Compound 302]: >32 µg/mL
O=C(NCc1cccs1)N1CC[C@@H]2[C@H]1C(=O)N2S(=O)(=O)[O-].[Na+] [Compound 314]: >32 µg/mL
NC(=O)c1c[n+](CC(=O)N2CC[C@@H]3[C@H]2C(=O)N3S(=O)(=O)[O-])ccc1N [Compound 126]: 16 µg/mL
CN(C)CCNC(=O)c1ccc(NC(=O)N2CC[C@@H]3[C@H]2C(=O)N3S(=O)(=O)[O-])cc1.[Na+] [Compound 310]: 16 µg/mL

Give me MIC of antibiotic at fixed inhibitor concentration (4 mg/L) for each of these compounds, listed below.
1. O=C(Nc1cccc(O)c1)N1CC[C@@H]2[C@H]1C(=O)N2S(=O)(=O)[O-].[Na+] [Compound 317]
2. Nc1cc[n+](CC(=O)N2CC[C@@H]3[C@H]2C(=O)N3S(=O)(=O)[O-])cc1 [Compound 103]

>32 µg/mL
8 µg/mL

// for each compound in input: emit MIC of antibiotic at fixed inhibitor concentration (4 mg/L)
1. O=C(C[n+]1ccc2c(c1)CCCC2)N1CC[C@@H]2[C@H]1C(=O)N2S(=O)(=O)[O-] [Compound 106]
2. CNC(=O)c1ccc[n+](CC(=O)N2CC[C@@H]3[C@H]2C(=O)N3S(=O)(=O)[O-])c1 [Compound 101]
3. O=C(C[n+]1ccc2ccccc2c1)N1CC[C@@H]2[C@H]1C(=O)N2S(=O)(=O)[O-] [Compound 104]
4. O=C(NCc1ccc(O)c(O)c1)N1CC[C@@H]2[C@H]1C(=O)N2S(=O)(=O)[O-].[Na+] [Compound 303]
5. COc1ccc(NC(=O)N2CC[C@@H]3[C@H]2C(=O)N3S(=O)(=O)[O-])cc1.[Na+] [Compound 304]
6. Nc1ccc(NC(=O)N2CC[C@@H]3[C@H]2C(=O)N3S(=O)(=O)[O-])cc1.[Na+] [Compound 327]
7. O=C(NC1CC1)c1ccc[n+](CC(=O)N2CC[C@@H]3[C@H]2C(=O)N3S(=O)(=O)[O-])c1 [Compound 109]

["32 µg/mL", "8 µg/mL", "32 µg/mL", ">32 µg/mL", ">32 µg/mL", ">32 µg/mL", "16 µg/mL"]

meta.source: patent US20160122320A1
